Consider the following molecules and their measured pIC50 readings.
Target: Thymidine kinase (Human alphaherpesvirus 1, UniProt Q9QNF7)
Sequence (Q9QNF7 whole entry): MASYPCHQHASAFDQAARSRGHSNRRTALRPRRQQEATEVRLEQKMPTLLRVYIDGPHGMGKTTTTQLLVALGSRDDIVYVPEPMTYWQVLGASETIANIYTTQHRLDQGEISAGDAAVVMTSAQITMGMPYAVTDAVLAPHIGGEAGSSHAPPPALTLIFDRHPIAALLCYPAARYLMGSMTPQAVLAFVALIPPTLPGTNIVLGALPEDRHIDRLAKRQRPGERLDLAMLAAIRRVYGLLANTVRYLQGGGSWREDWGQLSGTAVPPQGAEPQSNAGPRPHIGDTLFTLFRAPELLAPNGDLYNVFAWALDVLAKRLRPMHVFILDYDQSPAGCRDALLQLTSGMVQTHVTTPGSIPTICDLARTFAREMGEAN
Test: Inhibition of TdR phosphorylation using thymidine kinase assay for herpes simplex virus type 1
pIC50: −log10 of the molar value.
measure: pIC50

1) CCCCCCNc1nc(O)c2[nH]cnc2n1	4.26
2) O=c1[nH]c(Nc2ccc(F)c(F)c2)nc2nc[nH]c12	4.30
3) Oc1[nH]c(Nc2ccc3ccccc3c2)nc2ncnc1-2	4.40
4) CCCCc1ccc(Nc2nc3nc[nH]c3c(=O)[nH]2)cc1	4.30
5) O=c1[nH]c(Nc2ccc(O)cc2)nc2nc[nH]c12	3.85
6) Oc1[nH]c(Nc2ccc(Br)c(Br)c2)nc2ncnc1-2	5.52
7) Oc1[nH]c(Nc2ccc(Br)cc2)nc2ncnc1-2	6.00
8) Oc1[nH]c(Nc2cccc(Cl)c2)nc2ncnc1-2	5.89
9) CCc1cccc(Nc2nc3nc[nH]c3c(=O)[nH]2)c1	5.60
10) O=c1nc(Nc2cccc(CO)c2)[nH]c2nc[nH]c12	4.60
11) Cc1ccc(Nc2nc3nc[nH]c3c(=O)[nH]2)cc1	4.30
12) Oc1[nH]c(Nc2ccc(C(F)(F)F)cc2)nc2ncnc1-2	4.52
13) Oc1[nH]c(Nc2ccc(F)c(Cl)c2)nc2ncnc1-2	5.10
14) OCCCCCNc1nc(O)c2[nH]cnc2n1	4.00
15) O=c1[nH]c(Nc2cccc(C(F)(F)F)c2)nc2nc[nH]c12	6.82
16) O=c1[nH]c(NCc2ccc(Cl)cc2)nc2nc[nH]c12	5.07

###

Target: UniProt:Q9QNF7
Sequence (Q9QNF7 whole entry): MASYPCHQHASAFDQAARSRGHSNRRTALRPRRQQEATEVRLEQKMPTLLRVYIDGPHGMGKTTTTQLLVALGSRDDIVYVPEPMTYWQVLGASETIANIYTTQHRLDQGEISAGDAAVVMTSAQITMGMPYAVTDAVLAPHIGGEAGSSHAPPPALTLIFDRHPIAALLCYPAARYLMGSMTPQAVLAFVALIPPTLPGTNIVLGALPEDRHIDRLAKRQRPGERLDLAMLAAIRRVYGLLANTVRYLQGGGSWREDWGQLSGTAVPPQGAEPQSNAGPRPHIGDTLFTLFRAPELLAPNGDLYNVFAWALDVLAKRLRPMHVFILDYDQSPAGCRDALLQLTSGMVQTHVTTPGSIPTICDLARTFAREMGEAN
Assay: Inhibition of TdR phosphorylation using thymidine kinase (TK) assay for herpes simplex virus type 1 (HSV-1).
pKi: −log10 of the molar value.
measure: pKi

1) CCCCCCNC1=NC(=O)C2N=CN([C@H]3C[C@H](O)[C@@H](CO)O3)C2=N1 (stereo partly specified)	5.59

All figures here come from ChEMBL document CHEMBL1125141.
